# experimental.target: Tsr (thiostrepton resistance methyltransferase) (Streptomyces azureus, UniProt P18644, N129A)
# run.description: biochemical
Listed below: Kd values for each entry.
Give the value, in units of µM, as a plain number.

{"compound": "Nc1ncnc2c1ncn2[C@@H]1O[C@H](CSCC[C@H](N)C(=O)O)[C@@H](O)[C@H]1O", "reading.unit": "µM", "Kd": 16.4}

Okay, now this compound:
Q: Reported Kd for C[S+](CC[C@H](N)C(=O)O)C[C@H]1O[C@@H](n2cnc3c(N)ncnc32)[C@H](O)[C@@H]1O (some centres unmarked) : what is it?
Ans: 493

###

# experimental.target: Tsr (thiostrepton resistance methyltransferase) (Streptomyces azureus, UniProt P18644, R135A)
# run.description: biochemical
test.readout: Kd

{"molecule": "Nc1ncnc2c1ncn2[C@@H]1O[C@H](CSCC[C@H](N)C(=O)O)[C@@H](O)[C@H]1O", "test.result": "11 µM"}

Okay, now this molecule:
Q: Reported Kd for C[S+](CC[C@H](N)C(=O)O)C[C@H]1O[C@@H](n2cnc3c(N)ncnc32)[C@H](O)[C@@H]1O (some centres unmarked) : what is it?
Ans: 614 µM

###

# experimental.target: Tsr (thiostrepton resistance methyltransferase) (Streptomyces azureus, UniProt P18644, N129D)
# Sequence (P18644 whole entry N129D): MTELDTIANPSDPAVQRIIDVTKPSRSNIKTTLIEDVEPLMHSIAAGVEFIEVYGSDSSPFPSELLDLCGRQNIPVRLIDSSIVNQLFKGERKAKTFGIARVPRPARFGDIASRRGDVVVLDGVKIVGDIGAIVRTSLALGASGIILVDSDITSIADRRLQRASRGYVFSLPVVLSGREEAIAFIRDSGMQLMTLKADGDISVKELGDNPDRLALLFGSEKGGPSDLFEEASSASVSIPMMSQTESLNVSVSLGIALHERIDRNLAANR
# run.description: biochemical
test.readout: Kd (µM)
Give the value, in units of µM, as a plain number.

Q: Reported Kd for C[S+](CC[C@H](N)C(=O)O)C[C@H]1O[C@@H](n2cnc3c(N)ncnc32)[C@H](O)[C@@H]1O (stereo partly drawn) [SAM, S-adenosyl-L-methionine] : what is it?
Ans: 411

###

# experimental.target: Tsr (thiostrepton resistance methyltransferase) (Streptomyces azureus, UniProt P18644, R135K)
# Sequence (P18644 whole entry R135K): as the sequence (P18644 whole entry N129D) above, with D129N, R135K counted along it
# run.description: biochemical
test.readout: Kd (µM)
Give the value, in units of µM, as a plain number.

Q: Reported Kd for C[S+](CC[C@H](N)C(=O)O)C[C@H]1O[C@@H](n2cnc3c(N)ncnc32)[C@H](O)[C@@H]1O (stereo partly drawn) [SAM, S-adenosyl-L-methionine] : what is it?
Ans: 142
